experiment: Bioavailability; assay type: ADME, organism-based; conditions: eutheria, in vivo
Items are presented alongside their recorded bioavailability.
Reply numerically in %, unit not repeated.

>  <smiles_data>
CN1CCC(O)(c2nc(-c3ccc(F)cc3)c(-c3ccncc3)[nH]2)CC1

>  <endpoint_name>
bioavailability

>  <measurement>
23

$$$$

// next entry
Return reported bioavailability; argument: CN1CCC(O)(c2nc(-c3ccc(F)cc3)c(-c3ccncc3)o2)CC1
65

----------
biological target: Dual specificity mitogen-activated protein kinase kinase 6 (Homo sapiens, UniProt P52564); assay: Inhibition of MKK6b kinase
Sequence (P52564 whole entry): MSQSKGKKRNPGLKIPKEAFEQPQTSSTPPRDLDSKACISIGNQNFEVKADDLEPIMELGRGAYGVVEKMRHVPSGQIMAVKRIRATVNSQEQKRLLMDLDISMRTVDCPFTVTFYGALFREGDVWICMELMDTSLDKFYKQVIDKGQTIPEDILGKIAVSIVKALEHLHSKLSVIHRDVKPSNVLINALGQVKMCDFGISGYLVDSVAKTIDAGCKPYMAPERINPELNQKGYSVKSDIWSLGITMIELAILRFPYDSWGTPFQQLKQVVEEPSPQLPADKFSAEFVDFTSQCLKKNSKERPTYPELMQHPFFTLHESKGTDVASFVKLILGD
endpoint_name: IC50

Would you kindly share the measured IC50 for CN1CCC(O)(c2nc(-c3ccc(F)cc3)c(-c3ccncc3)o2)CC1 ?
> 100 µM

Origin of the recorded values: ChEMBL document CHEMBL1132910
